The reported measurements were obtained from patent US20230113037A1.

Recorded measurements of IC50, one per entry
# Test system: AHR (Homo sapiens)
# Construct: U87 MG glioblastoma cells (ATCC #HTB-14) endogenously expressing AHR; endogenous in cells; host or cells: U87 MG glioblastoma cells (ATCC #HTB-14)
# Sequence (P35869 11-848): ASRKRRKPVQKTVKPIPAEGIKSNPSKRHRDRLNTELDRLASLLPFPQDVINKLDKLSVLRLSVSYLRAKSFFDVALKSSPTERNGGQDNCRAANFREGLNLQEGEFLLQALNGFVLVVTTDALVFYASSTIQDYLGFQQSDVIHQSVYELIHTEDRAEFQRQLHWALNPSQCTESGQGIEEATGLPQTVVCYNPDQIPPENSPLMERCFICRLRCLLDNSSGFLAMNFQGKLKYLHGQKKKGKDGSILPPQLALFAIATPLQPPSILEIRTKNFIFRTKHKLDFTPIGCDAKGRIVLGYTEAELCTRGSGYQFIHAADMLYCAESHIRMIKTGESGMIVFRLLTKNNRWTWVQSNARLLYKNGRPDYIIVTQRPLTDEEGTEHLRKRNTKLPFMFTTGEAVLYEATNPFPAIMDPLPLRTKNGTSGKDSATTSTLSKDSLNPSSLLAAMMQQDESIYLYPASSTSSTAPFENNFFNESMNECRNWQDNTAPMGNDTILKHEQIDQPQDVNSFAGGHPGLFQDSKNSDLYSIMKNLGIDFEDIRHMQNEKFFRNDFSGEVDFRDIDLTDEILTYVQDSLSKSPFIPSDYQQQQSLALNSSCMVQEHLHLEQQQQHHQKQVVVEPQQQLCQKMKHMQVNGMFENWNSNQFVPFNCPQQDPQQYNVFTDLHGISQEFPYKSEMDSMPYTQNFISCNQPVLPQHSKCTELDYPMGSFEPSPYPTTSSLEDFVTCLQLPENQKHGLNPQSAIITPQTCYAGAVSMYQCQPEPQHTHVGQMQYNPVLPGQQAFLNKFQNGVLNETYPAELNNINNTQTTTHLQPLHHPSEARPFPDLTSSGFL
# Test method notes: In vitro assay 1: antagonism in human cell line (AHR transactivation, firefly luciferase reporter, kynurenic acid prestimulated)
# Format: cell-based
# Condition summary: AHR Antagonism Human IC50 [M]

| Compound | Test system | IC50 |
| --- | --- | --- |
| CC[C@H](Nc1nc2ccccc2c2nc(-c3ccccc3S(C)(=O)=O)nn12)C(N)=O | AHR (Homo sapiens) | > 2e-05 M |
| Cn1cc(-c2nc3c4ccccc4nc(NC4CCNC4=O)n3n2)cn1 (single isomer, unassigned) [Example 19] | AHR (Homo sapiens) | > 2e-05 M |
| O=C1NCCCC[C@H]1Nc1nc2ccccc2c2nc(-c3cncc(F)c3)nn12 | AHR (Homo sapiens) | 3.53e-08 M |

====

# Test system: UniProtKB P30561
# Sequence (P30561 whole entry P471L/N533S/M589L, form open): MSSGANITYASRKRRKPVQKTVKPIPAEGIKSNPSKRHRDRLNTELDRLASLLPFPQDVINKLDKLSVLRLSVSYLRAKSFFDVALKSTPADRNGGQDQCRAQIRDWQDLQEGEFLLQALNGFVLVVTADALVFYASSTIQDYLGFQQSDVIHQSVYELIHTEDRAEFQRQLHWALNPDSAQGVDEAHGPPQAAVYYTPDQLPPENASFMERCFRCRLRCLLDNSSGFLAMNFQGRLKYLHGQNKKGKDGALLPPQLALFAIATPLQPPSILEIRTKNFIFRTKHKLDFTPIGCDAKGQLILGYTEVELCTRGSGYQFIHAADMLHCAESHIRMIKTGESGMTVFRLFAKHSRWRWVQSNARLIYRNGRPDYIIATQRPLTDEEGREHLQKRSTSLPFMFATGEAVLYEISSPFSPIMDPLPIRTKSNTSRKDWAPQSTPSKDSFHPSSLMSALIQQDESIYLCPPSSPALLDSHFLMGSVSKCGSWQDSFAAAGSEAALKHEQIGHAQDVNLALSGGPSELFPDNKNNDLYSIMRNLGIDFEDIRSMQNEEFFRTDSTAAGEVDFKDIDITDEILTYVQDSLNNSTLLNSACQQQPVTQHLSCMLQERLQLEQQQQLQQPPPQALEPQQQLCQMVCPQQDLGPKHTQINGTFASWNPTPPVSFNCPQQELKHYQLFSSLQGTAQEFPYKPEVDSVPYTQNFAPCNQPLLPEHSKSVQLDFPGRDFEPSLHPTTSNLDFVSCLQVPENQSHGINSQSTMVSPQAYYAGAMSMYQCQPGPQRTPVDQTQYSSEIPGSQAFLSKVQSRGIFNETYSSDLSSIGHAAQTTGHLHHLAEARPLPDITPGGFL
# Test method notes: In vitro assay 3: antagonism in mouse cell line (AHR transactivation, firefly luciferase reporter, kynurenic acid prestimulated)
# Type: cell-based
# Condition summary: mouse Hepa 1c1c7 cells, 200 μM kynurenic acid, 20 hours, read-out: AHR Antagonism Mouse IC50
# Method: Examples were tested in selected biological assays one or more times. […] Firefly luciferase activity was determined by the SteadyGlo Luciferase Assay System (Promega, #E2550).
pIC50: −log10 of the molar value.

| Compound | pIC50 |
| --- | --- |
| CC[C@@H](Nc1nc2ccccc2c2nc(-c3cc(C(F)(F)F)cc(C(F)(F)F)c3)nn12)C(N)=O [Example 361] | 7.18 |
| N#Cc1cccc(-c2nc3c4ccccc4nc(N[C@H]4CCCCNC4=O)n3n2)c1 [Example 385] | 6.84 |
| COc1ccc(-c2nc3c4cccc(C(C)C)c4nc(N[C@@H]4CCCCNC4=O)n3n2)cc1 [Example 587] | 7.69 |
| COc1ccc(-c2nc3c4ccccc4nc(N[C@H](C)C(=O)N4CCOCC4)n3n2)cc1 [Example 778] | 8.36 |
| O=C1NCCCC[C@H]1Nc1nc2ccccc2c2nc(-c3ccccc3OC(F)(F)F)nn12 [Example 456] | 8.45 |
| COc1ccc(-c2nc3c4ccc(C)cc4nc(N[C@@H]4CNCCNC4=O)n3n2)cc1 [Example 274] | 5.67 |
| COc1ccc(-c2nc3c4ccccc4nc(N[C@H](C)C(=O)N4CCN(C)CC4)n3n2)cc1 [Example 777] | 8.66 |
| O=C1NCCCC[C@H]1Nc1nc2c(C(F)(F)F)cccc2c2nc(-c3ccc(Cl)cc3OC(F)F)nn12 [Example 673] | 8.80 |
| Cn1cc(-c2nc3c4cccc(F)c4nc(N[C@@H]4CCCCNC4=O)n3n2)cn1 [Example 551] | 7.86 |
| COc1cccc(-c2nc3c4cc(F)ccc4nc(NC4CCNC4=O)n3n2)c1 (stereo not shown) [Example 162] | 7.59 |
| COc1ccc(-c2nc3c4ccc(C#N)cc4nc(N[C@@H]4CCCCNC4=O)n3n2)cc1 [Example 400] | 6.92 |
| O=C1NCCCC[C@H]1Nc1nc2c(C(F)(F)F)cccc2c2nc(-c3ccc(Cl)cc3OC(F)(F)F)nn12 [Example 672] | 8.36 |
| Cc1nc(-c2nc3c4ccccc4nc(N[C@@H]4CCCCNC4=O)n3n2)co1 [Example 70] | 7.29 |
| COC(=O)c1cccc2c1nc(N[C@@H]1CCCCNC1=O)n1nc(-c3ccc(OC)cc3)nc21 [Example 250] | 6.87 |
| O=C1NCCCC[C@H]1Nc1nc2c(C(F)(F)F)cccc2c2nc(-c3cn[nH]c3)nn12 [Example 677] | 7.27 |
| CS(=N)(=O)c1cccc(-c2nc3c4ccccc4nc(N[C@@H]4CCCCNC4=O)n3n2)c1 (single isomer, unassigned) [Example 659] | 5.35 |
| CCCNC(=O)[C@@H](C)Nc1nc2ccccc2c2nc(-c3ccncc3F)nn12 [Example 487] | 6.70 |
| CCSc1cccc2c1nc(N[C@@H]1CCCCNC1=O)n1nc(-c3ccc(OC)cc3)nc21 [Example 770] | 8.29 |
| N#Cc1ccc(-c2nc3c4ccccc4nc(N[C@@H]4CCNC4=O)n3n2)cc1 [Example 388] | 5.54 |
| O=C1NCCCC[C@H]1Nc1nc2ccccc2c2nc(-c3cnn(C(F)F)c3)nn12 [Example 534] | 9.08 |
| COc1ccc(-c2nc3c4cccc(OCCC(F)(F)F)c4nc(N[C@@H]4CCCCNC4=O)n3n2)cc1 [Example 670] | 6.80 |
| CN1CC[C@@H](Nc2nc3ccccc3c3nc(-c4cccc(OC(F)(F)F)c4)nn23)C1=O [Example 312] | 7.66 |
| COc1ccc(-c2nc3c4c(N5CCOCC5)cccc4nc(N[C@@H]4CCCCNC4=O)n3n2)cc1 [Example 655] | 6.59 |
| Cc1nnc(-c2nc3c4ccccc4nc(N[C@@H]4CCCCNC4=O)n3n2)o1 [Example 199] | 6.94 |
| CC[C@@H](Nc1nc2ccccc2c2nc(-c3cc(C(F)(F)F)ccn3)nn12)C(N)=O [Example 367] | 7.98 |
